Every entry's value here was drawn from patent US20210403582A1.

# Target desc: T1, human LIF protein (human, UniProt P15018 23-202)
# T1 construct: Bought recombinant protein (Sino Biological / Yiqiao Shenzhou 14890-HNAH) in most assays; also called recombinant human LIF protein; rhLIF
# T1 sequence (P15018 23-202 limits assumed): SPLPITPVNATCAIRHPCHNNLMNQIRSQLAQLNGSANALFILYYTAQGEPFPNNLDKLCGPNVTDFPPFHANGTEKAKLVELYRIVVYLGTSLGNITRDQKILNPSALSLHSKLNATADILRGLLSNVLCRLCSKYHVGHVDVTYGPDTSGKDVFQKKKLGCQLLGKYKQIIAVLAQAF
# Procedure details: ELISA, antigen coated 0.5 ug/ml, 293S supernatant non-heated, antibody 0.04 ug/mL
Kindly supply the reported ELISA signal values for the records listed here.

Batch lookup, ELISA signal per entry.
1. H2L3 (antibody, human IgG1, kappa, V domains shown, Humanized, human IgG1 / kappa) VH: EVMLVESGGGLVQPGGSLRLSCAASGFIFSSYAMSWVRQAPGTGLEWVATISSGGSNTYSPDTVKGRFTISRDNSKNTLYLQMNSLRAEDTAMYYCARYYGYYFDFWGQGTLLTVSS VL: DIHMTQSPSSLSASVGDRVTITCRASENIYSYLAWYQQKPGKSPQLLVYNAKTLAEGVPSRFSGSGSGTQFTLTISSLQPEDFATYYCQHHYVTPLTFGQGTKLEIKR
2. H3L3 (antibody, human IgG1, kappa, N297A, V domains shown, Humanized, human IgG1 / kappa) VH: EVMLVESGGGLVQPGGSLRLSCAASGFIFSSYAMSWVRQAPETRLEWVATISSGGSNTYSPDTVKGRFTISRDNSKNTLYLQMNSLRAEDTAMYYCARYYGYYFDFWGQGTLLTVSS VL: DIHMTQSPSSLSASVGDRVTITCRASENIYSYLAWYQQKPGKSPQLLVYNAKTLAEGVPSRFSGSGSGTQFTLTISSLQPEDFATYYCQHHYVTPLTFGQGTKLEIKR

1. 6270
2. 6760
